Below is a list of entries, each paired with its recorded pEC50 value.
# assayed-target: human mAChR M1 (Homo sapiens, UniProt P11229)
# Construct: host or cells: CHO-K1 cells (ATCC), stably transfected using Lipofectamine2000
# Sequence (P11229 1-460): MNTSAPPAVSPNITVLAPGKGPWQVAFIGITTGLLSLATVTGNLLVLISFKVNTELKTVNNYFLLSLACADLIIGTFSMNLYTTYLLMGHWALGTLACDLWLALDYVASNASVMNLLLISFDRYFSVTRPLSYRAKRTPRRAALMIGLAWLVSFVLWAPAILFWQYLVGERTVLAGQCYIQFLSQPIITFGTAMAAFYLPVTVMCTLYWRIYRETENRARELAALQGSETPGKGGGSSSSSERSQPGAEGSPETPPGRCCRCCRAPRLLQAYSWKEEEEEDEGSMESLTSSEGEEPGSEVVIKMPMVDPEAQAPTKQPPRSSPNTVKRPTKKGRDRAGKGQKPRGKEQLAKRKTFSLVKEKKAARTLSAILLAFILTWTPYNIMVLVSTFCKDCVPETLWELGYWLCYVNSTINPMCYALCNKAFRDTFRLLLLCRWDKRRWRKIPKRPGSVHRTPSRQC
# method-summary: mAChR M1 cell-based functional assay (calcium mobilization), PAM activity: increase in the EC20 acetylcholine response
# condition-summary: CHO-K1 cells expressing hM1; potentiation of EC20 acetylcholine response
Please treat pEC50 as minus the base-10 logarithm of the molar concentration.

[Q] State the recorded pEC50 for this entry: Cn1ccc(-c2ccc(Cn3cc(C(=O)N[C@H]4CCCCC[C@@H]4O)c4nccnc4c3=O)c(F)c2)n1 [Compound A65]
[A] 5.28

[Q] Same again, this time with CC(C)[C@@H](CO)NC(=O)c1cn(Cc2c(F)cc(-c3cccc4nn(C)cc34)cc2F)c(=O)c2nccnc12 [Compound A75]
[A] 5.45
